molecular target: Acetylcholinesterase (Homo sapiens); assay: Acetylcholinesterase (AChE) small molecule antagonists: enzyme-based qHTS assay with human liver microsomes (AID 1347399); conditions: qHTS inhibition; series mostly up to 115 µM; also: nearly all actives have a fitted effect of over 60% in size
Active and inactive are the calls of the source. Calls follow the shape of the full dose curve.
Select the correct class. Options are 1 (yes) = active, 0 (no) = inactive and nothing else.

>>> label_class("CCC(=O)C(CCN(C)C)(c1ccccc1)c1ccccc1")
"0 (no)"
>>> label_class("O=C(O)c1ccc2[nH]cc(CCCCN3CC=C(c4ccccc4)CC3)c2c1")
"0 (no)"
>>> label_class("NC1=NC(=O)C(c2ccccc2)O1 (configuration not stated)")
"0 (no)"
>>> label_class("BrCCCCCCBr")
"0 (no)"
>>> label_class("O=NN1CCN(N=O)CC1")
"0 (no)"

Ask | In this assay, the call recorded for `CCCCOC(=O)c1ccccc1N` was what?
Reply | 0 (no)

Ask | Returns: the outcome recorded for `CC(C)CP(=S)(S)CC(C)C` in this assay.
Reply | 0 (no)

----------
target: Cytochrome P450 3A4 (Homo sapiens) (UniProt P08684); assay: Cytochrome P450 Family 3 Subfamily A Member 4 (CYP3A4) small molecule antagonists: luciferase reporter qHTS assay (AID 1671201); conditions: P450-Glo CYP3A4 enzyme, luciferin luminescence, 1 h; series mostly up to 115 µM; also: nearly all actives have a fitted effect of over 50% in size
Sequence (P08684 whole entry, looked up): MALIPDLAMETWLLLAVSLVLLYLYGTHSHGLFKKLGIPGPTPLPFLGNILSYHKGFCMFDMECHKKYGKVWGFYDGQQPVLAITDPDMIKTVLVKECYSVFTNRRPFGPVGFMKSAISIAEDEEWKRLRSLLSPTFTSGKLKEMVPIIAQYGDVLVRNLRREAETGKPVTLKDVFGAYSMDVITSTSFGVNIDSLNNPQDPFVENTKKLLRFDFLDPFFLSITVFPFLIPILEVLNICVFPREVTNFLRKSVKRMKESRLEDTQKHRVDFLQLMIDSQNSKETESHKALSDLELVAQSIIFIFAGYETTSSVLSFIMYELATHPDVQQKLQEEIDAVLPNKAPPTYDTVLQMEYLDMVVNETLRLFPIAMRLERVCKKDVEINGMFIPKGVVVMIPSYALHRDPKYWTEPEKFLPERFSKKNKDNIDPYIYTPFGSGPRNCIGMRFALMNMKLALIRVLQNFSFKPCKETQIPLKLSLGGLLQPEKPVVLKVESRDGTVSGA
Records with an inconclusive call do not appear. The source made the active and inactive calls. Calls come from the whole dose curve; as a rule, active = well fitted inhibition curve with a large enough effect in the repeat runs; inconclusive = weak or mixed curves; inactive = no such curve, though single readings can be large or run the other way.
Select the correct class. Options are Yes = active, No = inactive and nothing else.

Known results for compounds:
>>> label_class("O=[N+]([O-])c1cc(Cl)c(Cl)c(Cl)c1")
"No"
>>> label_class("CCCCOC(=O)[C@@H](C)Oc1ccc(Oc2ccc(C#N)cc2F)cc1")
"No"
>>> label_class("O=C(O)c1ccc2[nH]cc(CCCCN3CC=C(c4ccccc4)CC3)c2c1")
"No"
>>> label_class("Cc1cccc(C#N)c1")
"No"
>>> label_class("ClCC(Cl)Cl")
"No"
>>> label_class("CC1CN1P(=O)(N1CC1C)N1CC1C (centres undefined)")
"No"

Ask | Assay result, entry `CCCCOC(=O)c1ccccc1C(=O)O` — outcome?
Reply | No

Ask | // outcome(item) with item = `COC(=O)c1ccccc1S(=O)(=O)NC(=O)Nc1nc(C)cc(C)n1`
Reply | No

Ask | Outcome? `O=NN1CCN(N=O)CC1`
Reply | No

Ask | Please share the test call associated with `COc1cc(OC)nc(Oc2cccc(Oc3nc(OC)cc(OC)n3)c2C(=O)O)n1` .
Reply | No

Ask | Dear colleague, could you share the recorded outcome for `CC1(C)COP(Oc2ccccc2)OC1` when you have a moment?
Reply | No

Ask | Please share the test call associated with `C1CCC(C2CCCCC2)CC1` .
Reply | No

Ask | Lab log entry: `CCC1(c2ccccc2)C(=O)NC(=O)NC1=O` — outcome as called in the assay?
Reply | No

----------
assay: A CellTox Green Cytotoxicity Assay to monitor cytotoxicity in HepG2 cells - 8 hour (AID 1224890); conditions: CellTox Green fluorescence; series mostly up to 76.8 µM; also: nearly all actives have a fitted effect of over 45% in size
Results filed as inconclusive are left out. The source made the active and inactive calls. The call rests on the fitted dose curve; in most records, active means well fitted activation curve with a large enough effect in the repeat runs; inconclusive means weak or mixed curves; inactive means flat fitted curve, though single readings scatter.
measured_endpoint: cytotoxicity increase

>>> test_value("COc1cc(OC)nc(NC(=O)NS(=O)(=O)c2ncccc2C(=O)N(C)C)n1")
"inactive"
>>> test_value("C[N+](=O)[O-]")
"inactive"
>>> test_value("NC(=S)C(N)=S")
"inactive"
>>> test_value("CCN(CC)C(=O)[C@@H]1C=C2c3cccc4[nH]cc(c34)C[C@H]2N(C)C1")
"inactive"
>>> test_value("CC(=O)C(Cl)Cl")
"inactive"

The reported cytotoxicity increase of the molecule CCCSP(=S)(OCC)Oc1ccc(Cl)cc1Cl (centres undefined) was inactive

Record summary for `CN1CCN(C(=O)O[C@H]2c3nccnc3C(=O)N2c2ccc(Cl)cn2)CC1` : reported cytotoxicity increase = inactive

The reported cytotoxicity increase of the molecule `N#Cc1ccncc1` was inactive

cytotoxicity increase recorded for this molecule, `N#CCCC#N` , is inactive

----------
biological target: Cytochrome P450 1A2 (Homo sapiens); experiment: Cytochrome P450 Family 1 Subfamily A Member 2 (CYP1A2) small molecule antagonists: luciferase reporter qHTS assay (AID 1671199); conditions: P450-Glo CYP1A2 enzyme, luciferin luminescence, 1 h; series mostly up to 115 µM; also: nearly all actives have a fitted effect of over 50% in size; also: potency is read from the fitted curve at half-maximal effect
Results filed as inconclusive are left out. The source made the active and inactive calls. The call rests on the fitted dose curve; in most records, active means well fitted inhibition curve with a large enough effect in the repeat runs; inconclusive means weak or mixed curves; inactive means no such curve, though single readings can be large or run the other way.
measured_endpoint: Potency

Recorded Potency, per entry:
>>> test_value("COP(N)(=S)Oc1ccccc1C(=O)OC(C)C (stereo unspecified)")
"2 µM (active)"
>>> test_value("CCCSP(=S)(OCC)Oc1ccc(Cl)cc1Cl (stereo unspecified)")
"11.2 µM (active)"
>>> test_value("C#C[C@]1(O)C=C[C@H]2[C@@H]3CCC4=CC(=O)CC[C@@H]4[C@H]3CC[C@@]21CC")
"inactive"
>>> test_value("N#Cc1ccncc1")
"inactive"
>>> test_value("CN1CCC(O)(c2ccc(F)cc2)C(C(=O)c2ccc(F)cc2)C1 (stereo unspecified)")
"inactive"

Now take the following compound into account.
// Potency lookup, compound = `c1coc(-c2nc3ccccc3[nH]2)c1` , result: 7.96 µM (active)

----------
target: Acetylcholinesterase (Homo sapiens); assay: Acetylcholinesterase (AChE) small molecule antagonists: colormetric cell-based qHTS assay (AID 1347395); conditions: SH-SY5Y cells AChE activity, colorimetric (Ellman); series mostly up to 115 µM; also: nearly all actives have a fitted effect of over 30% in size
Results filed as inconclusive are left out. Activity calls are given as the source filed them. The call rests on the fitted dose curve.
Choose the fitting class; nothing outside 1.0 = active, 0.0 = inactive is accepted.

>>> label_class("CS(=O)(=O)c1cc(C(F)(F)F)ccc1C(=O)c1cnoc1C1CC1")
0.0

Ask | # outcome recorded in this test, key = O=C1OC(CCN2CCCCC2)OC1(c1ccccc1)c1ccccc1 (stereo not given)
Reply | 0.0

----------
biological target: Cytochrome P450 3A4 (Homo sapiens) (UniProt P08684); test: Cytochrome P450 Family 3 Subfamily A Member 4 (CYP3A4) small molecule antagonists: luciferase reporter qHTS assay (AID 1671201); settings: P450-Glo CYP3A4 enzyme, luciferin luminescence, 1 h; series mostly up to 115 µM; also: nearly all actives have a fitted effect of over 50% in size
Results filed as inconclusive are left out. The source made the active and inactive calls. Calls come from the whole dose curve; as a rule, active = well fitted inhibition curve with a large enough effect in the repeat runs; inconclusive = weak or mixed curves; inactive = no such curve, though single readings can be large or run the other way.
The reply should be one of these categories: class 1 (active), class 0 (inactive)

Below are worked cases with known answers.
>>> label_class("O=C(O)C(Br)CBr (stereo not given)")
"class 0"
>>> label_class("CN(C)CCc1ccc(O)cc1")
"class 0"
>>> label_class("[As]#[In]")
"class 0"
>>> label_class("C[C@H]1CCC[C@H](O)CCCCCc2cc(O)cc(O)c2C(=O)O1")
"class 1"
>>> label_class("CCc1cc2c(s1)-n1c(C)nnc1CN=C2c1ccccc1Cl")
"class 0"
>>> label_class("Cc1coc2c1CCC(C)C2 (stereo not given)")
"class 1"
>>> label_class("CC(=O)C(Cl)Cl")
"class 0"
>>> label_class("CC(C)[N+](=O)[O-]")
"class 0"
>>> label_class("CNC(=O)Oc1ccccc1C1OCCO1")
"class 0"
>>> label_class("c1ccc(N2CCNCC2)cc1")
"class 0"

Ask | Please share the test call associated with CC(CCc1ccccc1)NC(C)C(O)c1ccc(O)cc1 (stereo not given) .
Reply | class 0

Ask | What did this assay record as the result for COP(N)(=S)Oc1ccccc1C(=O)OC(C)C (stereo not given) ?
Reply | class 1

Ask | Which result was noted for this compound in the test: OC(c1ccc(F)cc1)(c1cncnc1)c1ccccc1Cl (stereo not given)
Reply | class 1

Ask | Please indicate how the test categorized `CC(C)CC#N` .
Reply | class 0

Ask | Which outcome did this test record for the compound NC1=NC(=O)C(c2ccccc2)O1 (stereo not given) ?
Reply | class 0

----------
experiment: qHTS assay to identify small molecule agonists of the estrogen related receptor (ERR) signaling pathway from Tox21 library (AID 1224849); settings: ERR reporter cell line, ONE-Glo luciferase, 18 h; at 92.4 µM (top of the series) unless noted; also: nearly all actives have a fitted effect of over 15% in size
The source made the active and inactive calls. Calls come from the whole dose curve.
Use one of these outcomes when replying: active, inactive

>>> label_class("COc1cc(OC)nc(NC(=O)NS(=O)(=O)c2ncccc2OCC(F)(F)F)n1")
"inactive"
>>> label_class("O=C(Nc1ccccc1)N(Cc1ccc(Cl)cc1)C1CCCC1")
"inactive"
>>> label_class("CCCCCCBr")
"inactive"
>>> label_class("[O]=[Cd]")
"inactive"
>>> label_class("CNC(=O)Oc1ccccc1C1OCCO1")
"inactive"
>>> label_class("CCCCCCI")
"inactive"
>>> label_class("CCS(=O)(=O)CCSP(=O)(OC)OC")
"inactive"
>>> label_class("ClCCCN1CCN(c2cccc(Cl)c2)CC1")
"inactive"
>>> label_class("CCCSP(=S)(OCC)Oc1ccc(Cl)cc1Cl (stereo not drawn)")
"inactive"
>>> label_class("C[C@H]1CCC[C@H](O)CCCCCc2cc(O)cc(O)c2C(=O)O1")
"inactive"

--- query ---
Ask | # outcome recorded in this test, key = `CCOc1nc(C(Cl)(Cl)Cl)ns1`
Reply | inactive
